# measurement-protocol: MM1S myeloma cell viability, profiling panel, resazurin fluorescence, basal, 24 h, PK04 Diversity Set (AID 1174);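 also: MM1S multiple myeloma cell line; test concentration not given here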
# condition-details: called active from +8 up or from −8 down
Calls of active or inactive are those of the source.
Outcome codes: t (active), f (inactive)

molecule: Cc1ccc(S[C@]2(C(=O)NC(C)C)CC(=O)N(Cc3ccccc3C(F)(F)F)[C@@H]2c2ccc(CO)cc2I)cc1
cat: f

molecule: O=C1c2ccccc2[C@](Cc2ccccc2I)(C(=O)NCc2ccccc2)[C@H](c2ccc(CO)cc2)N1C1CCCCC1
cat: f

molecule: CCCCN1CC=CC23O[C@@H]4/C=C\CCC(C)OC(=O)C4[C@H]2C(=O)N(CCCCCCO)[C@@H]3C1=O (some centres not stated)
cat: f

molecule: C=C(COC)/C(=C/C[C@@H](OC(=O)c1ccncc1)c1ccc(OCCO)cc1)c1cnc2ccccc2c1
cat: f

molecule: COc1ccc(C(O)C2C=CC3C(=O)N(c4ccccc4)C(=O)C3N2Nc2ccccc2)cc1OCc1ccccc1 (configuration not stated)
cat: f

molecule: CC(C)(C)OC(=O)CC[C@]1(C(=O)NCCN2CCOCC2)N=C(c2ccc(OCCCO)cc2)O[C@H]1c1ccccc1N=[N+]=[N-]
cat: f

molecule: CCC[C@@H]1C[C@@]1(CCC)[C@@H](NP(=O)(c1ccccc1)c1ccccc1)c1ccc(Cl)cc1
cat: f

molecule: CC=CC(O)C1C=CC2C(=O)N(c3ccccc3)C(=O)C2N1Nc1ccc([N+](=O)[O-])cc1 (configuration not stated)
cat: f

molecule: C=CCNC(=O)[C@H]1[C@@H]2C(=O)O[C@@H](c3ccccc3)[C@@H](c3ccccc3)N2[C@@H](c2ccccc2OCCO)[C@]12C(=O)N(C(=O)OCCOC)c1ccc(C#CC3=CCCCC3)cc12
cat: f

molecule: CCOC(=O)[C@@H]1[C@@H]2C(=O)N(CC)C(=O)[C@@H]2C[C@@H]1Sc1ccccc1
cat: f

molecule: CN(C)CCCNC(=O)[C@@]1(c2ccc([N+](=O)[O-])cc2)CC(=O)N(CC23CC4CC(CC(C4)C2)C3)[C@@H]1c1ccc(CO)cc1
cat: t

molecule: CC(CO)N1C(=O)[C@@H]2C3C(=O)OCCC/C=C\[C@H]3OC23C=CCN(Cn2nnc4ccccc42)C(=O)[C@@H]13 (some centres not stated)
cat: f

molecule: C[C@]1(C(=O)NC2CC2)c2ccccc2C(=O)N(Cc2ccc(OC(F)(F)F)cc2)[C@H]1c1ccc(CO)cc1
cat: f

molecule: CC(C)(C)OC(=O)CC[C@]1(C(=O)NCCN2CCOCC2)N=C(c2ccc(OCCCO)cc2)O[C@H]1c1ccccc1
cat: f

molecule: O=C(O)[C@H]1C[C@H]2C(=O)N3CCC[C@H]3C(=O)N2[C@H]1c1cccc(OCCO)c1
cat: f

molecule: CN1C(=O)C2C=CC(C(O)C3CCCCC3)N(N3CCCCC3)C2C1=O (configuration not stated)
cat: f

molecule: Cc1ccc(S[C@]2(C(=O)NCCN3CCOCC3)CC(=O)N(Cc3ccccc3C(F)(F)F)[C@@H]2c2ccc(CO)cc2I)cc1
cat: f

* * *

# measurement-protocol: RPMI8226 myeloma cell viability, profiling panel, resazurin fluorescence, basal, 24 h, PK04 Diversity Set (AID 1180);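 also: RPMI8826 multiple myeloma cell line at 5000 cells per well; test concentration not given here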
# condition-details: higher = more signal

molecule: COC(=O)[C@@]1(Cc2ccc(OC)cc2)[C@H]2c3cc(C(=O)N4CCCC4)n(CCc4cc5ccccc5[nH]4)c3C[C@H]2CN1C(=O)c1ccccc1
z-score: -0.818
--
molecule: O=C1O[C@@H](c2ccccc2)[C@@H](c2ccccc2)N2[C@@H](c3ccc(O)cc3)[C@]3(C(=O)Nc4ccc(C#CCCO)cc43)[C@@H](C(=O)NC[C@H](O)c3ccccc3)[C@H]12
z-score: 1.33
--
molecule: CN1C2C=C(CCCO)C(C3C(=O)N(C(N)=O)C(=O)C32)C1c1cccs1 (configuration not stated)
z-score: -0.69
--
molecule: COC(=O)[C@@]1(Cc2ccc(F)cc2)[C@H]2c3cc(C(=O)N4CCCC4)n(CCF)c3C[C@H]2CN1C(=O)c1ccccc1
z-score: -0.185
--
molecule: O=C1NC(=O)C2C1C=CC(C(O)c1ccc3c(c1)OCO3)N2Nc1ccccn1 (configuration not stated)
z-score: -0.431
--
molecule: CCOC(=O)C[C@H]1[C@H](OC(=O)Cc2ccc3c(c2)OCO3)[C@@H](NC(=O)C2CCCCC2)c2cc(OCCCO)ccc2N1C(=O)c1ccc2ccccc2n1
z-score: -0.338
--
molecule: COC(=O)[C@@]1(Cc2ccccc2)[C@H]2c3cc(C(=O)N4CCCC4)n(Cc4ccsc4Br)c3C[C@H]2CN1C(=O)c1ccccc1
z-score: -3.12
